- Protocol: yeast display, Sf9 membrane polyspecificity reagent, FACS + sequencing; frameworks hold sequencing errors

>  <Sequence content>
QVQLVESGGGLVQAGGSLRLSCAASGFTFSTYAMGWYRQAPGKERELVSAISFSGGSTYYADSVKGRFTISRDNAKNTVYLQMNSLKPEDTAVYYCARAYTKYFEIYFIYALLYGHWGQGTQVTVSS

>  <polyreactivity (PSR sort gate)>
low polyreactivity

$$$$
>  <Sequence content>
QVQLVESGGGLVQAGGSLRLSCAASGSTFAGNAMGWYRQAPGKERELVAASTFSGGRTDYADSVKGRFTISRDNAKNTVYLQMNSLNPEDSAVYYCAAPADDTVHYQNYYWGQGTQVTVSS

>  <polyreactivity (PSR sort gate)>
low polyreactivity

$$$$
>  <Sequence content>
QVQLVESGGGLVQAGGSLRLSCAASGFTFRGYVMGWYRQAPGKERELVAAITNIGTSTYYADSVKGRFTISRDNAKNTVYLQMNSLKPEDTAVYYCAARLRTKFYYWGQGTLVTVSS

>  <polyreactivity (PSR sort gate)>
low polyreactivity

$$$$

* * *

- Protocol: yeast display, Sf9 membrane polyspecificity reagent, FACS + sequencing; frameworks hold sequencing errors
Measurement type: polyreactivity (PSR sort gate)

>  <Sequence content>
QVQLVESGGGLVQAGGSLRLSCAASGFTFVINDMGWYRQAPGKERELVADITSGGDTYYADSVKGRFTISRDNAKNTVYLQMNSLTPEDTAVYYCAADIYPDWIYLLYGYWGHGTQVTVSS

>  <Measurement type>
polyreactivity (PSR sort gate)

>  <Assay value>
low polyreactivity

$$$$
>  <Sequence content>
QLQLVESGGGLVQAGGSLRLSCAATGFIFRYYVMGWYRQAPGKERELVAAITSGSTYADSVKGRFTISRDNAKNTVYLQMISLKPEDTAVYYCAAVKSQRGGPYSRGGKFGYWGQGTQVTVSS

>  <Measurement type>
polyreactivity (PSR sort gate)

>  <Assay value>
high polyreactivity

$$$$
>  <Sequence content>
QVQLVESGGGLVQAGGSLRLSCAASGSIFDVNAMGWYRQAPWKERELVAAISDSGGSTYYADSVKGRFTISRDNANNTVYLQMNSLKPEDTAVYYCNADWSWYNYYDFDYWGQGTQVTVSS

>  <Measurement type>
polyreactivity (PSR sort gate)

>  <Assay value>
low polyreactivity

$$$$
>  <Sequence content>
QVQLVESGGGLVQAGGSLRLSCAASGRIFSTYVMGCYRQAPGKERELVAAITRGGSTNYADSVKGRFTISRDNAKNTVYLQMNSLKPEDTAVYYCNAQRRGTYYLGQGTQVTVSS

>  <Measurement type>
polyreactivity (PSR sort gate)

>  <Assay value>
high polyreactivity

$$$$
>  <Sequence content>
QVQLVESGGGLVQAGGSRRLSCAASGFTFSSYAMGWYRQAPGKERELVASISWRGGITYYADSVKGRFTISRDNAKNTVYLQMNSLKPEDTAVYYCAAVAFFRPKFYYWGQGTQVTVSS

>  <Measurement type>
polyreactivity (PSR sort gate)

>  <Assay value>
high polyreactivity

$$$$

* * *

- Protocol: yeast display, Sf9 membrane polyspecificity reagent, FACS + sequencing; frameworks hold sequencing errors

>  <Sequence content>
QVQLVESGGCLVQAGRSLRLSCAASGSTFYYNAMAWYRQAPGKERELVAAITFTGGSTYADSVKGRFTISRDNAKNTVYFQMNSQKPEDTAVYYCAATIQGHDYLGTGYDYWGQGTQVTVSS

>  <polyreactivity (PSR sort gate)>
low polyreactivity

$$$$
>  <Sequence content>
QVHLVESGGGLVQAGGSLRLSCAASGSTFTLNTMGWYRQAPGKERELVAGIRSGGSTYYADSVKGRFTISRDNAKNTVYLQMNSLKPEDTAVYYCAADRRWFAYWFDYWGQGTQVTVSS

>  <polyreactivity (PSR sort gate)>
low polyreactivity

$$$$
>  <Sequence content>
QVQLVESGGGLVQAGGSLRLSCAATGRIFYRYSMGWYRQAPGKERELVAAIRYSGGTTYADSVKGRFTISRDNAKNTVYLQMNSLKPEDTAVFYCAARASLWGGFESWGQGTQVTVSS

>  <polyreactivity (PSR sort gate)>
high polyreactivity

$$$$
>  <Sequence content>
QVQHVESGGGLVQAGGILRLSSAASGSTFVKNGMGWSRQAPGKERELVAAISGRRGSTYYADSVKGRFTISRDNAKNTVYLQMNSLKPEDTAVYYCNKAYSVAYTYNYWGQGTQVTVSS

>  <polyreactivity (PSR sort gate)>
high polyreactivity

$$$$
>  <Sequence content>
QVQLVESGGGLVQAGGSLRLSCAASGFIFSGYNMGWYRQAPGKERELVAAITKRGGRTYYADSVKWRFTISRDNAKNTVYLQMNSLKPEDTAVYYCNVDVKVYSDETTDGDYWGQGTQVTVSS

>  <polyreactivity (PSR sort gate)>
high polyreactivity

$$$$
>  <Sequence content>
QVQLVESGGGLVQAGGSLRLSCAASGRISVFNAMGWYRQAPGKERELVATITDGGSTYYADSVKGRFTISRDNAKNSVYLQMNSLKPEDTAVYYCAKKQVTTDVSSETFVLEMDYLGQGTQVTVSS

>  <polyreactivity (PSR sort gate)>
low polyreactivity

$$$$
>  <Sequence content>
QVQLVESGGGLVQAGGSLRLSCAASGRIFPAYAMGWYRQAPGKEREWVASIRRGGITYADSVKGRFTISRDNAKNTVYLQMNSLKPEDTAVYYCNADYRGWGYHMDYWGQGTQVTVSS

>  <polyreactivity (PSR sort gate)>
low polyreactivity

$$$$
>  <Sequence content>
QVQLVESGGGLVQAGGSLRLSCAASGSIFGRYAMGWYRQAPGTEREGVAAISRSCDNTSYADSVKGRFTISRDTAKNTVYLQMNSLKPEDSAVYYCNADRPFSLGQRKYVDFDEPYNYWGQGTQVTVSS

>  <polyreactivity (PSR sort gate)>
low polyreactivity

$$$$
>  <Sequence content>
QVQLVESGGGLVQAGGSLRLSCAASGSTFAKNAMGWYSQAPGIDRELVAAISSGGSTYYADSVKGRFTIARDNAKNTVYLQMNSLKPEDTAVYYCAASWIQGYRTYGYWGQGTQVTVSS

>  <polyreactivity (PSR sort gate)>
high polyreactivity

$$$$
>  <Sequence content>
QVQLVESGGGLVQAGGSLRLSCAASGNIFRGYTMGWYRQAPGKERELVATITWNGVSTFYADSVKGRFTISRDNAKNTVYLEMNSLKPEDTAVYYCAAYYPSHDYSGFWSDTYEYWGQGTQVTVSS

>  <polyreactivity (PSR sort gate)>
low polyreactivity

$$$$
>  <Sequence content>
QVQLVESGGRLLQAGGSLRLSCAASGSTISHYAMGWYRQAPGKEWELVATITVTGVRTYYADSVKGRFTISRDNAKNTVYLELNSLKPEDTAVYYCAVRPSTRGAQAQPWMYYWGQGTQVTVSS

>  <polyreactivity (PSR sort gate)>
low polyreactivity

$$$$
>  <Sequence content>
QVQLVESGGGLVQAGGSLRLSCAASGFTFAPYALGWYRQAPGKERELVAAIRRSGGSTYYADSVKGRFTISRDNAKNTVYLQMNSLKPEDTAVYYCAASTYQNGYGYWGQGTQVTVSS

>  <polyreactivity (PSR sort gate)>
high polyreactivity

$$$$
